Tested on: Caco-2
Test: cell viability relative to DMSO; higher = less toxic
Conditions: 72 h; 1 nM
Would you kindly list cell viability for each of these molecules?
Answers are plain numbers, in %.

Solved entries (count: 5):
Cc1cncc(CN2CCC(=C3c4ccc(Cl)cc4CCc4cccnc43)CC2)c1 ... 98.3
O=C1NCN(c2ccccc2)C12CCN(CCCC(c1ccc(F)cc1)c1ccc(F)cc1)CC2 ... 88.3
CCN1CCC[C@H]1CNC(=O)c1c(O)c(Cl)cc(Cl)c1OC [raclopride] ... 91.2
CCCCC/C=C\C/C=C\C/C=C\CCCCC(=O)O ... 97.9
CCCC(=O)O [sodium-butyrate] ... 104

Okay, now this molecule:
Q) Look up cell viability for this molecule: CC(C)=CCC[C@](C)(O)[C@H]1CC[C@]2(C)[C@@H]1[C@H](O)C[C@@H]1[C@@]3(C)CC[C@H](O)C(C)(C)[C@@H]3CC[C@]12C
A) 106

Source: the supplement of paper PMC13380429
